System: SF-268
Assay Details: cells
Measurement Setup: Homo sapiens, SF-268, read-out: G150
Value Kind: pIC50
Reminder that pIC50 means the negative base-10 logarithm of the concentration expressed in mol/L.

Ask: Complete the entry with pIC50 for COc1cc(Nc2ncc(F)c(Nc3ccc4c(n3)NC(=O)C(C)(C)O4)n2)cc(OC)c1OC
Result: 5.77

* * *

Test system: LOX I MVI
Assay Details: cells
Measurement Setup: Homo sapiens, LOX IMVI, read-out: G150
Value Kind: IC50 (nM)
Write the answer as a number in nM, unit excluded.

Ask: Quote IC50 with test system LOX I MVI for COc1cc(Nc2ncc(F)c(Nc3ccc4c(n3)NC(=O)C(C)(C)O4)n2)cc(OC)c1OC
Result: 1130

* * *

System: HOP-62
Assay Details: cells
Measurement Setup: Homo sapiens, HOP-62, read-out: G150
Value Kind: pIC50
Reminder that pIC50 means the negative base-10 logarithm of the concentration expressed in mol/L.

Ask: Complete the entry with pIC50 for COc1cc(Nc2ncc(F)c(Nc3ccc4c(n3)NC(=O)C(C)(C)O4)n2)cc(OC)c1OC [Compound 1]
Result: 6.27

* * *

Test system: PC-3
Assay Details: cells
Measurement Setup: Homo sapiens, PC-3, read-out: G150
Value Kind: pIC50
Reminder that pIC50 means the negative base-10 logarithm of the concentration expressed in mol/L.

Ask: Complete the entry with pIC50 for COc1cc(Nc2ncc(F)c(Nc3ccc4c(n3)NC(=O)C(C)(C)O4)n2)cc(OC)c1OC
Result: 5.51

* * *

Tested on: SN12C
Assay Details: cells
Measurement Setup: Homo sapiens, read-out: G150
Value Kind: pIC50
Reminder that pIC50 means the negative base-10 logarithm of the concentration expressed in mol/L.

Ask: Complete the entry with pIC50 for COc1cc(Nc2ncc(F)c(Nc3ccc4c(n3)NC(=O)C(C)(C)O4)n2)cc(OC)c1OC
Result: 6.16

* * *

System: HOP-92
Assay Details: cells
Measurement Setup: Homo sapiens, HOP-92, read-out: G150
Value Kind: pIC50
Reminder that pIC50 means the negative base-10 logarithm of the concentration expressed in mol/L.

Ask: Complete the entry with pIC50 for COc1cc(Nc2ncc(F)c(Nc3ccc4c(n3)NC(=O)C(C)(C)O4)n2)cc(OC)c1OC
Result: 6.39

* * *

Test system: OVCAR-4
Assay Details: cells
Measurement Setup: Homo sapiens, OVCAR-4, read-out: G150
pIC50: −log10 of the molar value.
Value Kind: pIC50

Ask: Complete the entry with pIC50 for COc1cc(Nc2ncc(F)c(Nc3ccc4c(n3)NC(=O)C(C)(C)O4)n2)cc(OC)c1OC [Compound 1]
Result: < 4.00

* * *

Test system: HCC-2998
Assay Details: cells
Measurement Setup: Homo sapiens, HCC 2998, read-out: G150
pIC50: −log10 of the molar value.
Value Kind: pIC50

Ask: Quote pIC50 with test system HCC-2998 for COc1cc(Nc2ncc(F)c(Nc3ccc4c(n3)NC(=O)C(C)(C)O4)n2)cc(OC)c1OC
Result: < 4.00

* * *

Tested on: CAKI-1
Assay Details: cells
Measurement Setup: Homo sapiens, CAKI-1, read-out: G150
Value Kind: pIC50
Reminder that pIC50 means the negative base-10 logarithm of the concentration expressed in mol/L.

Ask: Complete the entry with pIC50 for COc1cc(Nc2ncc(F)c(Nc3ccc4c(n3)NC(=O)C(C)(C)O4)n2)cc(OC)c1OC
Result: 7.29

* * *

Tested on: SK-MEL-28
Assay Details: cells
Measurement Setup: Homo sapiens, SK-MEL-28, read-out: G150
Value Kind: IC50

Ask: Complete the entry with IC50 for COc1cc(Nc2ncc(F)c(Nc3ccc4c(n3)NC(=O)C(C)(C)O4)n2)cc(OC)c1OC
Result: > 100 µM

* * *

System: RPM1-8226
Assay Details: cells
Measurement Setup: Homo sapiens, read-out: G150
pIC50: −log10 of the molar value.
Value Kind: pIC50

Ask: Complete the entry with pIC50 for COc1cc(Nc2ncc(F)c(Nc3ccc4c(n3)NC(=O)C(C)(C)O4)n2)cc(OC)c1OC
Result: < 4.00

* * *

System: SF-539
Assay Details: cells
Measurement Setup: Homo sapiens, SF-539, read-out: G150
Value Kind: pIC50
Reminder that pIC50 means the negative base-10 logarithm of the concentration expressed in mol/L.

Ask: Complete the entry with pIC50 for COc1cc(Nc2ncc(F)c(Nc3ccc4c(n3)NC(=O)C(C)(C)O4)n2)cc(OC)c1OC
Result: 6.22

* * *

Tested on: RXF 393
Assay Details: cells
Measurement Setup: Homo sapiens, RXF 393, read-out: G150
Value Kind: pIC50
Reminder that pIC50 means the negative base-10 logarithm of the concentration expressed in mol/L.

Ask: Complete the entry with pIC50 for COc1cc(Nc2ncc(F)c(Nc3ccc4c(n3)NC(=O)C(C)(C)O4)n2)cc(OC)c1OC [Compound 1]
Result: 6.71

* * *

System: OVCAR-3
Assay Details: cells
Measurement Setup: Homo sapiens, OVCAR-3, read-out: G150
Value Kind: IC50

Ask: Quote IC50 with test system OVCAR-3 for COc1cc(Nc2ncc(F)c(Nc3ccc4c(n3)NC(=O)C(C)(C)O4)n2)cc(OC)c1OC
Result: > 100 µM

* * *

System: IGROV1
Assay Details: cells
Measurement Setup: Homo sapiens, IGROV-1, read-out: G150
Value Kind: IC50 (nM)
Write the answer as a number in nM, unit excluded.

Ask: Complete the entry with IC50 for COc1cc(Nc2ncc(F)c(Nc3ccc4c(n3)NC(=O)C(C)(C)O4)n2)cc(OC)c1OC
Result: 796
